Origin of the recorded values: the nanobody polyreactivity screen of Harvey et al. (2022)

TEST_DESCRIPTION: yeast display, Sf9 membrane polyspecificity reagent, FACS + sequencing; frameworks hold sequencing errors
MEASUREMENT_TYPE: polyreactivity (PSR sort gate)

QVQLVEYGGGLVQAGGSLRLSCAASGRIFGYYTMGWYRQAPRKERELVAAITSSGGRTYYADSVKGRFTISRDNAKNTVYLQMNSLKPEDTAVYYCNKVTFGYAYWRYDGYDYWGQGTQVTVSS
low polyreactivity
QVQLQERGGGLVQAGGSLRLSCAASCTIFRFRYMGWHRQAPGKERELVAGINGGTTTYYADSVIGRFTISRDNAKNTLYLQMNSLKPDDTAVYNCAAVASRLTYYDYWGQGTQVTVSS
low polyreactivity
QVQLVESGGGLVQAGGSLRLSCAASGAIFRYYAMGWYRPAPGKEREFVAAIRGSGGSPYYADSVKGRFTISRDNAKNTVYIQMISLKPEDTAVYYCAARKYSDRQVWYCYWGHGTQVTVSS
high polyreactivity
QVQLVESGGGLVQAGGSLRLSCAASGSIFDGNAMGWYSQAPGKERELVAAITTDYRTYYADSVKGRFTISRDNAKNTFYLQMNSLKPEDTAVYYCNVVIYYFNSRTVYYDYDYWGQGTQVTVSS
high polyreactivity
QVKLVESGGGLVKAGGSLRLSCAASGSISDWYAMGWYIQAPGKERELVAAISNSDGSTYYADSEKGRFTISRDNAKNTVYLQMNSLQPEYTAVYYCNASDAHEDRKSEYWGQGTQVTVSS
low polyreactivity
QVQLVESGGGLVQAGGSLRLSCAASGSIFGYAMGWYRQAPGKARELVAAISFSGVSTYYADSVKGRFTITRDNAKNTVYLQMNSLKPEDTAGYYCNAYSDGDEDYWGQGTQVNVSS
low polyreactivity
QVQLVESGGGLVQAGGSLRLSCAASGSTFGWNTMGWYRQAPGKERELVAAISWYGDRTYYADSVKGRFTISRDNAKNTVYLQMNSLKPEDTAVYYCARQRYYGYYYWGQGTQVTVSS
high polyreactivity
QVQLVESGGGLVQAGGSLRLSCAASGRIFRSNARGWYRPAPGKERELVAAISSNGGSTYYADSVKGRFTISRDNAKNTVYLQMNSLKPEDTAVYYCAARVYYPVRYGYWGQGTQVTVSS
high polyreactivity

Recorded result, QVQLVESGGGLVQAGGSLRLSCAASGSIFCYNTMGWYRQAPGKERELVAAITFSGGSTYYADSVKGRFTISRDNAKNTVYLKMNSLKPEDTAVYYCAAVFYSAVGYYYWGQGTQVTVSS , polyreactivity (PSR sort gate): low polyreactivity

Per the record, QVQLVESGGGLVQAGGSLRLSCAASGITFWVYVMGWYRQAPGKEREFVADISSGAGTTYYADSVKGRFTISRDNAKNTVYLQMNSLKPEDTAVYYCAARRWWPQWYDYWGQGTQVTVSS has polyreactivity (PSR sort gate) of high polyreactivity

Kindly note the recorded polyreactivity (PSR sort gate) for QVQLLESGGGLVQAGGSLRLSCAASGRTFTRNAMGWYRQAPGKERELVAAISYRVGSTYYADSVKGRFTISRDNAKNTVYLQMNSLKPEDTAVYYCATGRGHSYGGDDYWGQGTQVTVSS , which is high polyreactivity
